test system: Candida albicans TA; assay: Protective effect against Candida albicans infection in mice (oral, ED50 from survival rate); format: in vivo; details: 168 h; Crj: CDF1 mice inoculated i.v. with minimum lethal dose of Candida albicans TA; single oral dose immediately after infection as 30% HPCD solution; Reed and Muench method from survival rate 7 days after infection
The entries below come with measured ED50 values attached.
Use mg/kg as the unit, but write only the number.

// known answers, use as guide
smilesnotation=C[C@@H](N1CCN(c2ccc(-n3ccnn3)cc2)C1=O)[C@](O)(Cn1cncn1)c1ccccc1F assaysystem="Candida albicans TA" measuredproperty=ED50 testvalue=0.8
smilesnotation=C[C@@H](N1CCN(c2ccc(-n3cncn3)cc2)C1=O)[C@](O)(Cn1cncn1)c1ccccc1F assaysystem="Candida albicans TA" measuredproperty=ED50 testvalue=0.5
smilesnotation=C[C@@H](n1ncn(-c2ccc(-n3nccn3)cc2)c1=O)[C@](O)(Cn1cncn1)c1ccc(F)cc1F assaysystem="Candida albicans TA" measuredproperty=ED50 testvalue=0.096
smilesnotation=C[C@@H](N1CCN(c2ccc(-n3nccn3)cc2)C1=O)[C@](O)(Cn1cncn1)c1ccccc1F assaysystem="Candida albicans TA" measuredproperty=ED50 testvalue=0.71
smilesnotation=C[C@@H](n1ccn(-c2ccc(-n3ncnn3)cc2)c1=O)[C@](O)(Cn1cncn1)c1ccccc1F assaysystem="Candida albicans TA" measuredproperty=ED50 testvalue=0.35

Need ED50, item C[C@@H](n1ccn(-c2ccc(-n3cnnn3)cc2)c1=O)[C@](O)(Cn1cncn1)c1ccc(F)cc1F
0.22

Need ED50, item C[C@@H](n1ncn(-c2ccc(-n3cncn3)cc2)c1=O)[C@](O)(Cn1cncn1)c1ccc(F)cc1F
0.22

Need ED50, item C[C@@H](n1ncn(-c2ccc(-n3cccn3)cc2)c1=O)[C@](O)(Cn1cncn1)c1ccc(F)cc1F
0.39

###

measuredProperty: melting point

// known answers, use as guide
smilesnotation=C[C@@H](n1ccn(-c2ccc(-n3ccnn3)cc2)c1=O)[C@](O)(Cn1cncn1)c1ccc(F)cc1F measuredproperty="melting point" testvalue="178 to 181 °C"
smilesnotation=C[C@@H](n1ccn(-c2ccc(-n3nccn3)cc2)c1=O)[C@](O)(Cn1cncn1)c1ccc(F)cc1F measuredproperty="melting point" testvalue="182 to 185 °C"
smilesnotation=C[C@@H](N1CCN(c2ccc(-n3nccn3)cc2)C1=O)[C@](O)(Cn1cncn1)c1ccccc1F measuredproperty="melting point" testvalue="178 to 179 °C"
smilesnotation=C[C@@H](n1ncn(-c2ccc(-n3ccnn3)cc2)c1=O)[C@](O)(Cn1cncn1)c1ccc(F)cc1F measuredproperty="melting point" testvalue="219 to 220 °C"

Need melting point, item C[C@@H](n1ncn(-c2ccc(-n3nccn3)cc2)c1=O)[C@](O)(Cn1cncn1)c1ccc(F)cc1F
213 to 215 °C

Need melting point, item C[C@@H](n1ncn(-c2ccc(-n3cncn3)cc2)c1=O)[C@](O)(Cn1cncn1)c1ccc(F)cc1F
182 to 184 °C

###

system: Candida albicans TA; assay: Protective effect against Candida albicans infection in mice (oral, ED50 from survival rate); type: in vivo; details: 168 h; Crj: CDF1 mice inoculated i.v. with minimum lethal dose of Candida albicans TA; single oral dose immediately after infection as 30% HPCD solution; Reed and Muench method from survival rate 7 days after infection
measuredProperty: ED50 (mg/kg)
Use mg/kg as the unit, but write only the number.

smilesnotation=C[C@@H](n1ccn(-c2ccc(-n3nccn3)cc2)c1=O)[C@](O)(Cn1cncn1)c1ccc(F)cc1F measuredproperty=ED50 testvalue=0.18

Need ED50, item C[C@@H](N1CCN(c2ccc(-n3cnnn3)cc2)C1=O)[C@](O)(Cn1cncn1)c1ccccc1F
0.45

Need ED50, item C[C@@H](n1ccn(-c2ccc(-n3ccnn3)cc2)c1=O)[C@](O)(Cn1cncn1)c1ccc(F)cc1F
0.45

Need ED50, item C[C@@H](N1CCN(c2ccc(-n3ncnn3)cc2)C1=O)[C@](O)(Cn1cncn1)c1ccc(F)cc1F
0.18
